This collection of values is drawn from ChEMBL document CHEMBL2346636.

assay: Half life of the compound in HCl/THF at room temperature; type: physicochemical
Property measured: half-life (min)

structure_as_smiles=Cn1c(=O)c2c(nc(-c3ccccc3Cl)n2C(=O)OC(C)(C)C)c2ccc(Br)cc21 property_measured=half-life result=30

====

assay: Half life of the compound in NaOH/THF/MeOH at room temperature; format: physicochemical
Property measured: half-life (min)

structure_as_smiles=Cn1c(=O)c2c(nc(-c3ccccc3Cl)n2C(=O)OC(C)(C)C)c2ccc(Br)cc21 result=15

====

experiment: Half life of the compound in TBAF/THF under reflux
Property measured: half-life (min)

structure_as_smiles=Cn1c(=O)c2c(nc(-c3ccccc3Cl)n2COCC[Si](C)(C)C)c2ccc(Br)cc21 property_measured=half-life result=30
